Item-by-item account of relative viability
System: NCI-H2170
Assay: relative viability (nuclei count vs DMSO), 5 days (fraction); higher = more cells survive
Conditions: first compound 8 µM
measured metric: relative viability

compound	measured metric	result
C=C1C(=O)O[C@@H](CCCCCCCC)[C@@H]1C(=O)O [C-75] + CCNC(=O)c1noc(-c2cc(C(C)C)c(O)cc2O)c1-c1ccc(CN2CCOCC2)cc1 [Luminespib] (partner 0.01 µM)	relative viability	0.669
C=C1C(=O)O[C@@H](CCCCCCCC)[C@@H]1C(=O)O [C-75] + N=C(N)NC(=N)NCCc1ccccc1 [Phenformin] (partner 250 µM)	relative viability	0.481
C=C1C(=O)O[C@@H](CCCCCCCC)[C@@H]1C(=O)O [C-75] + C[C@@H](Oc1cc(-c2cnn(C3CCNCC3)c2)cnc1N)c1c(Cl)ccc(F)c1Cl [Crizotinib] (partner 1 µM)	relative viability	1.24

----------
Property: relative viability; scope: individual compounds
Tested on: LXF-289
Test: relative viability (nuclei count vs DMSO), 5 days (fraction); higher = more cells survive
Conditions: first compound 8 µM

compound	study system	relative viability
C=C1C(=O)O[C@@H](CCCCCCCC)[C@@H]1C(=O)O [C-75] + O=C(CCCCCCC(=O)Nc1ccccc1)NO [Vorinostat] (partner 1 µM)	LXF-289	0.749
C=C1C(=O)O[C@@H](CCCCCCCC)[C@@H]1C(=O)O [C-75] + COc1cccc2cc(-c3nc([C@H]4CC[C@H](C(=O)O)CC4)n4ncnc(N)c34)[nH]c12 [OSI-027] (partner 0.5 µM)	LXF-289	0.713
C=C1C(=O)O[C@@H](CCCCCCCC)[C@@H]1C(=O)O [C-75] + Cc1nc(NC(=O)N2CCC[C@H]2C(N)=O)sc1-c1ccnc(C(C)(C)C(F)(F)F)c1 [Alpelisib] (partner 2 µM)	LXF-289	1.09
C=C1C(=O)O[C@@H](CCCCCCCC)[C@@H]1C(=O)O [C-75] + Nc1ncn([C@H]2C[C@H](O)[C@@H](CO)O2)c(=O)n1 [Decitabine] (partner 2 µM)	LXF-289	0.399
C=C1C(=O)O[C@@H](CCCCCCCC)[C@@H]1C(=O)O [C-75] + C[C@@H](Oc1cc(-c2cnn(C3CCNCC3)c2)cnc1N)c1c(Cl)ccc(F)c1Cl [Crizotinib] (partner 1 µM)	LXF-289	0.806
C=C1C(=O)O[C@@H](CCCCCCCC)[C@@H]1C(=O)O [C-75] + CC(=O)c1c(C)c2cnc(Nc3ccc(N4CCNCC4)cn3)nc2n(C2CCCC2)c1=O [Palbociclib] (partner 0.5 µM)	LXF-289	0.621

----------
System: NCI-H23
Experiment: relative viability (nuclei count vs DMSO), 5 days (fraction); higher = more cells survive
Conditions: first compound 2.53 µM
Attribute: relative viability
measured metric: relative viability

compound	measured metric	result
Oc1nc(-c2ccc(C(F)(F)F)cc2)nc2c1CSCC2 [XAV939] + Nc1ncn([C@H]2C[C@H](O)[C@@H](CO)O2)c(=O)n1 [Decitabine] (partner 2 µM)	relative viability	0.273
C=C1C(=O)O[C@@H](CCCCCCCC)[C@@H]1C(=O)O [C-75] + Nc1nc2[nH]cc(CCc3ccc(C(=O)N[C@@H](CCC(=O)O)C(=O)O)cc3)c2c(=O)[nH]1 [Pemetrexed] (partner 0.2 µM)	relative viability	0.406
Oc1nc(-c2ccc(C(F)(F)F)cc2)nc2c1CSCC2 [XAV939] + CS(=O)(=O)CCNCc1ccc(-c2ccc3ncnc(Nc4ccc(OCc5cccc(F)c5)c(Cl)c4)c3c2)o1 [Lapatinib] (partner 2 µM)	relative viability	0.932
C=C1C(=O)O[C@@H](CCCCCCCC)[C@@H]1C(=O)O [C-75] + CC1(C)CCC(c2ccc(Cl)cc2)=C(CN2CCN(c3ccc(C(=O)NS(=O)(=O)c4ccc(N[C@H](CCN5CCOCC5)CSc5ccccc5)c(S(=O)(=O)C(F)(F)F)c4)cc3)CC2)C1 [Navitoclax] (partner 0.5 µM)	relative viability	0.672
